Give measured Ki for each item. Keep answers brief.
subject_of_test: Muscarinic acetylcholine receptor M3 (Rattus norvegicus)
Sequence (P08483 whole entry): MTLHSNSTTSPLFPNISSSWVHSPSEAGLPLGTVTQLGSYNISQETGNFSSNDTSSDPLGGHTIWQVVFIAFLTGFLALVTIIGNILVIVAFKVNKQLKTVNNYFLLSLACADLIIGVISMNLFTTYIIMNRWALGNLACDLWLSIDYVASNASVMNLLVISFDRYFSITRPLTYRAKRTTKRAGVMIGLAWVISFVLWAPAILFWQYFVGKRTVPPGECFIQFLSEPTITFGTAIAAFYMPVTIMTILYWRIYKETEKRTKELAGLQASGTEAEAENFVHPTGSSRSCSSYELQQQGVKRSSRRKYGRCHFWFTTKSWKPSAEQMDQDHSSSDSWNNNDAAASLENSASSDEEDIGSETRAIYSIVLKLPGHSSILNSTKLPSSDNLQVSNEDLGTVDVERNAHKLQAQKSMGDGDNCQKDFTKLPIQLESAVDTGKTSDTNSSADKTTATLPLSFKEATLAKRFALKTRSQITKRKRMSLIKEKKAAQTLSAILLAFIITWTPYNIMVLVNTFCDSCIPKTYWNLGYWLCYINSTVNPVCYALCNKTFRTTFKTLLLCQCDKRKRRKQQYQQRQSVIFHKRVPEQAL
One number for each entry, in nM.

Example entries and their recorded answers appear below.
Read off the recorded Ki for COc1ccccc1CNCCCCCCNCCCCCCCCNCCCCCCNCc1ccccc1OC 955

Read off the recorded Ki for CN(CCCCCCCCN(C)CCCCCCNCC(=O)N1c2ccccc2NC(=O)c2cccnc21)CCCCCCNCC(=O)N1c2ccccc2NC(=O)c2cccnc21 2570

Please state Ki for every compound in the list that follows.
1. CN(CCCCCCN)CCCCCCCCN(C)CCCCCCNCC(=O)N1c2ccccc2C(=O)Nc2cccnc21
2. CN(CCCCCCCCN(C)C(=O)CCCCCNCC(=O)N1c2ccccc2C(=O)Nc2cccnc21)C(=O)CCCCCN

331
158

Read off the recorded Ki for CN(CCCCCCCCN(C)CCCCCCNCC(=O)N1c2ccccc2NC(=O)c2ccccc21)CCCCCCNCC(=O)N1c2ccccc2NC(=O)c2ccccc21 115

---

subject_of_test: UniProtKB P10980
Sequence (P10980 whole entry): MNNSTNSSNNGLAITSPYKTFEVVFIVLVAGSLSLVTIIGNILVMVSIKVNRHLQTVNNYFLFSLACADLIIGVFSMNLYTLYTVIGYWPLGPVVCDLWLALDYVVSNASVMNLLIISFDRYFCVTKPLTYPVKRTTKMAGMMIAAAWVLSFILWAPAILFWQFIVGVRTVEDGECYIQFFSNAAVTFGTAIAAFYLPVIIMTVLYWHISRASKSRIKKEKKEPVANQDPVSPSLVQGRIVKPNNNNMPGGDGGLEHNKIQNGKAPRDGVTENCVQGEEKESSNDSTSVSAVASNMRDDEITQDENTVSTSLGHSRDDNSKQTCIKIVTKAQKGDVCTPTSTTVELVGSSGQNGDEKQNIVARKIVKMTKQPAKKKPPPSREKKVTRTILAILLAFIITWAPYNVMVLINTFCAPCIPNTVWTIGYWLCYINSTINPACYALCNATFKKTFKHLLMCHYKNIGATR
metric: Ki

Read off the recorded Ki for CN(CCCCCCCCN(C)CCCCCCNCC(=O)N1c2ccccc2NC(=O)c2cccnc21)CCCCCCNCC(=O)N1c2ccccc2NC(=O)c2cccnc21 20.9 nM

---

subject_of_test: Muscarinic acetylcholine receptor M3 (Rattus norvegicus)
Give measured Ki for each item. Keep answers brief.
One number for each entry, in µM.

Example entries and their recorded answers appear below.
Read off the recorded Ki for CN(CCCCCCCCN(C)CCCCCCN(CC(=O)N1c2ccccc2NC(=O)c2cccnc21)CC(=O)N1c2ccccc2NC(=O)c2cccnc21)CCCCCCNCC(=O)N1c2ccccc2NC(=O)c2cccnc21 0.398

Read off the recorded Ki for CN(CCCCCCCCN(C)C(=O)CCCCCN(CC(=O)N1c2ccccc2C(=O)Nc2cccnc21)CC(=O)N1c2ccccc2C(=O)Nc2cccnc21)C(=O)CCCCCNCC(=O)N1c2ccccc2C(=O)Nc2cccnc21 5.75

Next item in the queue.
Read off the recorded Ki for CN(CCCCCCCCN(C)CCCCCCN(CC(=O)N1c2ccccc2C(=O)Nc2cccnc21)CC(=O)N1c2ccccc2C(=O)Nc2cccnc21)CCCCCCNCC(=O)N1c2ccccc2C(=O)Nc2cccnc21 0.148

---

subject_of_test: Muscarinic acetylcholine receptor M3 (Cavia porcellus)
Sequence (Q8VH26 whole entry): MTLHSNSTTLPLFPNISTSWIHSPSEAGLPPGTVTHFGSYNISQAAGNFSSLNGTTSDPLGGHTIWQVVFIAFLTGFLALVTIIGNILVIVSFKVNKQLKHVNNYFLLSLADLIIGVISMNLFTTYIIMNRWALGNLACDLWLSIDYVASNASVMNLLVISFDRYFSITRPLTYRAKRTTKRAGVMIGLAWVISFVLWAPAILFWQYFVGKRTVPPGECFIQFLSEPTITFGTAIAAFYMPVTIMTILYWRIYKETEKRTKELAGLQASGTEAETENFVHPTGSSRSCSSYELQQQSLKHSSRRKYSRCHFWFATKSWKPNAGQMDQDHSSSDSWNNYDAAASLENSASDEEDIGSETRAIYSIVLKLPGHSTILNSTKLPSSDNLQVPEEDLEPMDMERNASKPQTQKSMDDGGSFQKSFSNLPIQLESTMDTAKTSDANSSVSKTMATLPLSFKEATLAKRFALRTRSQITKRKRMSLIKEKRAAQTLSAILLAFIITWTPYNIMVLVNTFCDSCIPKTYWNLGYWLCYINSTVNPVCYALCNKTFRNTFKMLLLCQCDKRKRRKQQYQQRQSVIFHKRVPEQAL
assay_comment: Antagonist affinity evaluated against Muscarinic acetylcholine receptor M3 in isolated guinea pig longitudinal Ileum.
Type: functional, tissue-based
condition_label: read-out: pA2 (converted)
# label = 1 (yes) if Kb < 500 nM else 0 (no)

Please check: Kb for CN(CCCCCCCCN(C)CCCCCCNCC(=O)N1c2ccccc2NC(=O)c2cccnc21)CCCCCCNCC(=O)N1c2ccccc2NC(=O)c2cccnc21 , strictly under 500 nM or not? 0 (no)

Please check: Kb for CN(CCCCCCCCN(C)C(=O)CCCCCNCCC(=O)N1c2ccccc2C(=O)Nc2cccnc21)C(=O)CCCCCN , strictly under 500 nM or not? 1 (yes)

Please check: Kb for CN(CCCCCCCCN(C)CCCCCCN(CC(=O)N1c2ccccc2NC(=O)c2cccnc21)CC(=O)N1c2ccccc2NC(=O)c2cccnc21)CCCCCCN(CC(=O)N1c2ccccc2NC(=O)c2cccnc21)CC(=O)N1c2ccccc2NC(=O)c2cccnc21 , strictly under 500 nM or not? 0 (no)

Please check: Kb for CN(CCCCCCCCN(C)CCCCCCN(CC(=O)N1c2ccccc2NC(=O)c2ccccc21)CC(=O)N1c2ccccc2NC(=O)c2ccccc21)CCCCCCNCC(=O)N1c2ccccc2NC(=O)c2ccccc21 , strictly under 500 nM or not? 1 (yes)

Please check: Kb for CN(CCCCCCN)CCCCCCCCN(C)CCCCCCNCCCCC(=O)N1c2ccccc2C(=O)Nc2cccnc21 , strictly under 500 nM or not? 1 (yes)

Further cases:
Please check: Kb for CN(CCCCCCCCN(C)C(=O)CCCCCNCC(=O)N1c2ccccc2C(=O)Nc2cccnc21)C(=O)CCCCCN , strictly under 500 nM or not? 1 (yes)

Please check: Kb for CN(CCCCCCCCN(C)C(=O)CCCCCNCC(=O)N1c2ccccc2C(=O)Nc2cccnc21)C(=O)CCCCCNCC(=O)N1c2ccccc2C(=O)Nc2cccnc21 , strictly under 500 nM or not? 1 (yes)
